Measured values drawn from patent US8846873B2 for this set.

- TESTED SYSTEM: T1, GPNMB (Homo sapiens, UniProt Q14956)
- T1 construct: made in house; host or cells: HEK 293
- T1 sequence (Q14956 23-492): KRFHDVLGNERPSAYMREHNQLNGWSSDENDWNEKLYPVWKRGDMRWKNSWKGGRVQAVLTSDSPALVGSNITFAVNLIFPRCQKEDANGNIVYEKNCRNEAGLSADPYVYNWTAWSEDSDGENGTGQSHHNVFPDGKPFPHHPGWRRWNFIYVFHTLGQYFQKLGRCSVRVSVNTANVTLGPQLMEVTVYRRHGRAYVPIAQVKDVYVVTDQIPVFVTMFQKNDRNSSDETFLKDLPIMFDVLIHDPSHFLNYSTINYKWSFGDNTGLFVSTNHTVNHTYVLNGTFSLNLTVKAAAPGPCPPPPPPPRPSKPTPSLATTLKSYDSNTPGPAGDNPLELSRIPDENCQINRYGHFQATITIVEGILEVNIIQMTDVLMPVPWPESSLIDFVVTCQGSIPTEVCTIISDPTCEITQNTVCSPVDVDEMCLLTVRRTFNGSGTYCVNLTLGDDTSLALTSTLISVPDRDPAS
- EXPERIMENTAL DETAILS: BiaCore 2000 biosensor binding of hybridoma supernatant mAb to GPNMB
- REPORTED CONDITIONS: mAb captured on protein A, GPNMB 880 nM, 1:1 kinetic model
Listed here: items and their measured ka.

Mab1.7.1: human anti-GPNMB antibody; VH SEQ ID NO: 56, VL SEQ ID NO: 65 (antibody, listed as Homo sapiens, V domains shown) VH: QVQLQESGPGLVKPSQTLSLTCTVSGGSISSANYYWTWIRQHPGKGLEWIGYIYYSGSTYCNPSLKSRVIISVDTSKNQFSLKLSSVTAADTAVYYCARGYNWNYFDYWGQGTLVTVSSA VL: DIVMTQSPATLSVSPGERATLSCRASQSVSSNLAWYQERPGQAPRLLIYGASTRATGIPARFSGSGSGTEFTLTISSLQSEDFAVYYCQQYNKWPPWTFGQGTKVEIER :: 11842 M⁻¹ s⁻¹
Mab1.10.2: human anti-GPNMB antibody; VH SEQ ID NO: 2, VL SEQ ID NO: 11 (antibody, listed as Homo sapiens, V domains shown) VH: QVQLQESGPGLVKPSETLSLTCTVSGDSISNYYWSWIRQPPGKGLEWIGYFYYSGSTNYNPSLKSRVTISVDTSKNQFSLKLSSVTAADTAVYYCARDRGWADYWGQGTLVTVSSA VL: EIVLTQSPGTLSLSPGERATLSCRTSQSISSSYLAWYQQKPGQVPRLLIYGASSRATGIPDRFSGSGSGTDFTLTISRLEPEDFAVYYCQQYGSSITFGQGTRLEIKR :: 3955 M⁻¹ s⁻¹
Mab1.2.2: human anti-GPNMB antibody; VH SEQ ID NO: 38, VL SEQ ID NO: 47 (antibody, listed as Homo sapiens, V domains shown) VH: ITLKESGPTLVKPTQTLTLTCTFSGFSLSAGGVGVGWIRQPPGKALEWLALIYWNDDKRYSPSLRSRLTITKDTSKNQVVLTITNMDPVDTATYYCAHSHYDYDWGSYFDYWGQGTLVTVSSA VL: DIVMTQTPLSLPVTPGEPASISCRSSQSLLDSDDGNTYLDWYLQKPGQSPQLLIYTLSYRASGVPDRFSGSGSGTDFTLNISRVEAEDVGVYYCMQRIEFPITFGQGTRLEIKR :: 9257 M⁻¹ s⁻¹

Below: the item to evaluate.
Bench note: what ka did Mab1.15.1 (protein, listed as Homo sapiens) QVQLQESGPGLVKPSQTLSLTCTVSGGSISSFNYYWSWIRHHPGKGLEWIGYIYYSGSTYSNPSLKSRVTISVDTSKNQFSLTLSSVTAADTAVYYCARGYNWNYFDYWGQGTLVTVSSA show?
16524 M⁻¹ s⁻¹
